Ref: patent US20250074911A1

# Test system: wt-TMD8 diffuse large B-cell lymphoma cells
# test.summary: Cell proliferation assay wt-TMD8 (ATPlite, 120 hours)
# Type: cell-based
# recorded.conditions: B-cell, 120 h, read-out: IC50 wt-TMD8
pIC50: −log10 of the molar value.
endpoint.name: pIC50

Item CN1C/C=C/c2cnc(N)c3c(-c4ccc(C(=O)Nc5cc(C(F)(F)F)ccn5)cc4)nc(n23)[C@@H]2CCCN(C2)C(=O)CCCC1 has what recorded pIC50?
> 7.00

---

# assay.system: wt-BTK (Homo sapiens (Human))
# Sequence (Q06187 whole entry): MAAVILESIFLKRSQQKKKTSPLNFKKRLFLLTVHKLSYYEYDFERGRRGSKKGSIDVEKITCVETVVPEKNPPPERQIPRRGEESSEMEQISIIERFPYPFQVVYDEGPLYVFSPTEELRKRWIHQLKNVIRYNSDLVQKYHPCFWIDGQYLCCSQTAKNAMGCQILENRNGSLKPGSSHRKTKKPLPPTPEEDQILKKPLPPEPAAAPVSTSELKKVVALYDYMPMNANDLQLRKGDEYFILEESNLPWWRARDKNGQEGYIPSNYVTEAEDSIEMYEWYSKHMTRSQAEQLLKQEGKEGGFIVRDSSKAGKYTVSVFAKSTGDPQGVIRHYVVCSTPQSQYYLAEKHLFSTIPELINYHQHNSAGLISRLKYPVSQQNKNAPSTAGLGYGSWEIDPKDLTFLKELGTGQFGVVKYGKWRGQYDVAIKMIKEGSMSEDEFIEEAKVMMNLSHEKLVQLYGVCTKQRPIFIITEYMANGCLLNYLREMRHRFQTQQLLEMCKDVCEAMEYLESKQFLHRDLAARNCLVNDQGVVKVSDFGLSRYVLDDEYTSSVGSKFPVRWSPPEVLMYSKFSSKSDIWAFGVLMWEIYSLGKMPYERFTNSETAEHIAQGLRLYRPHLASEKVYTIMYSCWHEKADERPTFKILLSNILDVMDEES
# test.summary: Binding kinetics measurements (Surface Plasmon Resonance) on wt-BTK
# recorded.conditions: target residence time, SPR
Please note: 1 applies when Tau (h) wt-BTK (Act) is 3 h or greater, and -1 applies otherwise.

Please check the record CN1C/C=C/c2cnc(N)c3c(-c4ccc(C(=O)Nc5cc(C(F)(F)F)ccn5)cc4)nn(c23)[C@@H]2CCC[C@H](C2)NC(=O)C1 and state if its Tau (h) wt-BTK (Act) is at or above 3 h.
-1

Assess whether reported Tau (h) wt-BTK (Act) for Nc1ncc2c3c1c(-c1ccc(C(=O)Nc4cc(C(F)(F)F)ccn4)cc1)nn3[C@@H]1CCC[C@H](C1)NC(=O)CCOCC/C=C/2 sits at 3 h or higher.
1

Dear colleague, could you confirm whether Nc1ncc2c3c1c(-c1ccc(C(=O)Nc4cc(F)ccn4)cc1)nn3[C@@H]1CCC[C@H](C1)NC(=O)CCOCC/C=C/2 has Tau (h) wt-BTK (Act) at or above 3 h?
1

Decide: is the reported value of Tau (h) wt-BTK (Act) for Nc1ncc2c3c1c(-c1ccc(C(=O)Nc4cc(C(F)(F)F)ccn4)cc1)nn3[C@@H]1CCC[C@H](C1)NC(=O)COCCC/C=C/2 equal to or greater than 3 h?
1

Is it the case that C[C@H]1CC(=O)N[C@@H]2CCCC(C2)n2nc(-c3ccc(C(=O)Nc4cc(C(F)(F)F)ccn4)cc3)c3c(N)ncc(c32)/C=C/CCN1 has Tau (h) wt-BTK (Act) reaching or exceeding 3 h?
-1

Test whether the molecule Nc1ncc2c3c1c(-c1ccc(C(=O)Nc4cc(C(F)(F)F)ccn4)cc1)nn3[C@@H]1CCC[C@H](C1)NC(=O)CCC/C=C/2 records Tau (h) wt-BTK (Act) of 3 h or higher.
-1

---

# assay.system: wt-BTK (Homo sapiens (Human))
# test.summary: Binding kinetics measurements (Surface Plasmon Resonance) on wt-BTK
# recorded.conditions: target residence time, SPR
# Protocol: Binding kinetics measurements on wt-BTK, BTK […], BTK […], BTK […] and BTK […] […] The kinetic constants of the compounds were determined with single cycle kinetics with five consecutive injections with an increasing compound concentration with ranges of 3.16-316 nM. […] The SPR sensorgrams were analyzed with Biacore Evaluation Software by using a method of double referencing. […] Target residence for an induced fit model was calculated as described (Tummino and Copeland, 2008).
Each entry falls into one class according to its Tau (h) wt-BTK (Act); the ranges are low interval: < 3 h; middle interval: ≥ 3 h and < 6 h; high interval: ≥ 6 h

Lab note: which band did Nc1ncc2c3c1c(-c1ccc(C(=O)Nc4cc(C(F)(F)F)ccn4)cc1F)nn3[C@@H]1CCC[C@H](C1)NC(=O)CCC/C=C/2 [Example 7] land in?
low interval

Categorize the following entry: Nc1ncc2c3c1c(-c1ccc(C(=O)Nc4cc(C(F)(F)F)ccn4)cc1)nn3[C@@H]1CCC[C@H](C1)NC(=O)CCCC/C=C/2 [Example 48]
high interval

Class label required: Nc1ncc2n3c(nc(-c4ccc(C(=O)Nc5cc(C(F)(F)F)ccn5)cc4)c13)[C@@H]1CC[C@H](C1)NC(=O)CCCCC/C=C/2 [Example 203]
middle interval

Which Tau (h) wt-BTK (Act) band matches Nc1ncc2n3c(nc(-c4ccc(C(=O)Nc5cc(C6CC6)ccn5)cc4)c13)[C@@H]1CC[C@H](C1)NC(=O)CCOCC/C=C/2 [Example 223] ?
low interval

Which Tau (h) wt-BTK (Act) category applies to Nc1ncc2n3c(nc(-c4ccc(C(=O)Nc5cc(OC(F)F)ccn5)cc4)c13)[C@@H]1CC[C@H](C1)NC(=O)CCOCC/C=C/2 [Example 224] here?
middle interval

Which class does C[C@@H]1CC(=O)N[C@@H]2CC[C@H](C2)c2nc(-c3ccc(C(=O)Nc4cc(C(F)(F)F)ccn4)cc3)c3c(N)ncc(n23)/C=C/CCN1 [Example 207] fall in?
low interval

Band assignment needed for C[C@@H]1CC(=O)N[C@@H]2CCC[C@H](C2)n2nc(-c3ccc(C(=O)Nc4cc(C(F)(F)F)ccn4)cc3)c3c(N)ncc(c32)/C=C/CCN1C [Example 40] please.
high interval

Where would N#Cc1ccnc(NC(=O)c2ccc(-c3nn4c5c(cnc(N)c35)/C=C/COCCC(=O)N[C@@H]3CCC[C@@H]4C3)cc2)c1 [Example 164] land among the classes by reported Tau (h) wt-BTK (Act)?
high interval

Sort into band: N#Cc1ccnc(NC(=O)c2ccc(-c3nc4n5c(cnc(N)c35)/C=C/CCOCCC(=O)N[C@@H]3CC[C@@H]4C3)cc2)c1 [Example 201]
high interval

# classify by Tau (h) wt-BTK (Act) band: C[C@H]1OC/C=C/c2cnc(N)c3c(-c4ccc(C(=O)Nc5cc(C(F)(F)F)ccn5)cc4)nn(c23)[C@@H]2CCC[C@H](C2)NC1=O [Example 28]
middle interval

Please let me know in which category the item COc1ccc(F)cc1C(=O)NCc1ccc(-c2nc3n4c(cnc(N)c24)/C=C/CCOCCC(=O)N[C@@H]2CC[C@@H]3C2)cc1 [Example 213] belongs.
low interval

Bin this entry: Nc1ncc2c3c1c(-c1ccc(C(=O)Nc4cc(C(F)(F)F)ccn4)cc1)nn3[C@@H]1CCC[C@H](C1)NC(=O)[C@@H]1CCN(C/C=C/2)C1 [Example 147]
middle interval

---

Record form. Attribute: residence time. Fill in for each entry.
# assay.system: BTK T474S (Homo sapiens (Human), UniProt Q06187, T474S)
# Sequence (Q06187 whole entry T474S): as the sequence (Q06187 whole entry) above, with T474S counted along it
# test.summary: Binding kinetics measurements (Surface Plasmon Resonance) on BTK T474S
# recorded.conditions: SPR binding kinetics, BTK T474S; read-out: Tau (h) BTK T474S (Act); target residence time (converted)
Report only the number, with the unit h understood.

Request: residence time, test system BTK T474S (Homo sapiens (Human), UniProt Q06187, T474S), entry C[C@H]1CC(=O)N[C@@H]2CCC[C@H](C2)n2nc(-c3ccc(C(=O)Nc4cc(C(F)(F)F)ccn4)cc3)c3c(N)ncc(c32)/C=C/CCN1C
1.24

// fetch BTK T474S (Homo sapiens (Human), UniProt Q06187, T474S) residence time for C[C@H]1CC(=O)N[C@@H]2CCC[C@H](C2)n2nc(-c3ccc(C(=O)Nc4cc(C(F)(F)F)ccn4)cc3)c3c(N)ncc(c32)/C=C/CN1C
2.11

Quick check: residence time on BTK T474S (Homo sapiens (Human), UniProt Q06187, T474S), item Nc1ncc2c3c1c(-c1ccc(C(=O)Nc4cc(C(F)(F)F)ccn4)cc1)nn3[C@@H]1CCCN(C1)C(=O)CCCCCC/C=C/2 ?
6.2

---

Read-out record for UniProt:Q06187: IC50

Value lookup for IC50; key = Nc1ncc2c3c1c(-c1ccc(C(=O)Nc4cc(C(F)(F)F)ccn4)cc1F)nn3[C@@H]1CCC[C@H](C1)NC(=O)CCC/C=C/2
< 5 nM

Would you mind telling me what IC50 value was observed for CC1NC/C=C/c2cnc(N)c3c(-c4ccc(C(=O)Nc5cc(C(F)(F)F)ccn5)cc4)nn(c23)CC[C@@H](C)NC1=O (single isomer, unassigned) ?
5 to 50 nM

State the recorded IC50 for this entry: Nc1ncc2c3c1c(-c1ccc(C(=O)Nc4cc(C(F)(F)F)ccn4)cc1)nn3[C@@H]1CCCN(C1)C(=O)CCCCCCCC/C=C/2
< 5 nM

Requested read-out: IC50. Entry: Nc1ncc2n3c(nc(-c4ccc(C(=O)Nc5cc(C(F)(F)F)ccn5)cc4)c13)[C@@H]1CCC[C@H](C1)NC(=O)CCC/C=C/2
< 5 nM

Which IC50 is listed for Nc1ncc2c3c1c(-c1ccc(C(=O)Nc4cc(C(F)(F)F)ccn4)cc1)nn3[C@@H]1CCC[C@H](C1)NC(=O)CCCCCC/C=C\C2 [Example 103b] ?
< 5 nM

Request the reported IC50 associated with CN1C/C=C/c2cnc(N)c3c(-c4ccc(C(=O)Nc5cc(C(F)(F)F)ccn5)cc4)nn(c23)[C@@H]2CCC[C@H](C2)C(=O)NCC1
< 5 nM

---

# assay.system: BTK T316A (Homo sapiens (Human), UniProt Q06187, T316A)
# Sequence (Q06187 whole entry T316A): as the sequence (Q06187 whole entry) above, with T316A counted along it
# test.summary: Binding kinetics measurements (Surface Plasmon Resonance) on BTK T316A
# recorded.conditions: target residence time, SPR
For each of the compounds below, state its Tau (h) BTK T316A (Act).
A number alone suffices; assume h.

Tell me the measured Tau (h) BTK T316A (Act) of Nc1ncc2n3c(nc(-c4ccc(C(=O)Nc5cc(C(F)(F)F)ccn5)cc4)c13)[C@@H]1CCC[C@H](C1)NC(=O)CCCC/C=C/2 , please.
2.22

Any idea what Tau (h) BTK T316A (Act) was measured for C[C@@H]1CC(=O)N[C@@H]2CCC[C@H](C2)n2nc(-c3ccc(C(=O)Nc4cc(C(F)(F)F)ccn4)cc3)c3c(N)ncc(c32)/C=C/CCN1 ?
6.06

Fill in the blank: the reported Tau (h) BTK T316A (Act) of N#Cc1ccnc(NC(=O)c2ccc(-c3nn4c5c(cnc(N)c35)/C=C/CCCCCC(=O)N[C@@H]3CCC[C@@H]4C3)cc2)c1 is ____.
4.67

Look at this compound and give its reported Tau (h) BTK T316A (Act). C[C@H]1CC(=O)N[C@@H]2CCC[C@H](C2)n2nc(-c3ccc(C(=O)Nc4cc(C(F)(F)F)ccn4)cc3)c3c(N)ncc(c32)/C=C/CCN1C
6.08

// lookup Tau (h) BTK T316A (Act) for Nc1ncc2c3c1c(-c1ccc(C(=O)Nc4cc(C(F)(F)F)ccn4)cc1)nn3[C@@H]1CCC[C@H](C1)NC(=O)C1CCN1CC/C=C/2 (stereo partly drawn)
5.41

Returns the measured Tau (h) BTK T316A (Act) for the input compound. Input: Nc1ncc2n3c(nc(-c4ccc(C(=O)Nc5cc(C(F)(F)F)ccn5)cc4)c13)[C@@H]1CCC[C@H](C1)NC(=O)CCC/C=C/2
1.58
